Tested on: MCF-10A
Assay: Antiproliferative activity against human MCF-10A cells assessed as reduction in cell viability incubated for 24 hrs by MTT assay
Type: functional, cell-based
Each record is given t if its reported IC50 is strictly below 60 µM. Records at or above 60 µM are given f.

Compound: O=C(CCCCCCCCc1ccc(O)cc1)c1c(O)cccc1O [MALABARICONE B]
Measurement target: MCF-10A
Answer label: f

Compound: COc1cccc2c1C(=O)c1c(O)c3c(c(O)c1C2=O)C[C@@](O)(C(=O)CO)C[C@@H]3O[C@H]1C[C@H](N)[C@H](O)[C@H](C)O1 [DOXORUBICIN]
Measurement target: MCF-10A
Answer label: t

Compound: O=C(CCCCCCCCc1ccc(O)c(O)c1)c1c(O)cccc1O [MALABARICONE C]
Measurement target: MCF-10A
Answer label: f

Compound: O=C(CCCCCCCCc1ccccc1)c1c(O)cccc1O [MALABARICONE A]
Measurement target: MCF-10A
Answer label: f

Alright, here's another compound for you.
Consider the compound O=C(CCCCCCCCc1ccc2c(c1)OCO2)c1c(O)cccc1O . Is its IC50 strictly less than 60 µM? f
